Cited source for all entries: patent US4973592A

# target: muscarinic receptors of the cerebral cortex (Rattus norvegicus)
# Sequence (P08482 whole entry): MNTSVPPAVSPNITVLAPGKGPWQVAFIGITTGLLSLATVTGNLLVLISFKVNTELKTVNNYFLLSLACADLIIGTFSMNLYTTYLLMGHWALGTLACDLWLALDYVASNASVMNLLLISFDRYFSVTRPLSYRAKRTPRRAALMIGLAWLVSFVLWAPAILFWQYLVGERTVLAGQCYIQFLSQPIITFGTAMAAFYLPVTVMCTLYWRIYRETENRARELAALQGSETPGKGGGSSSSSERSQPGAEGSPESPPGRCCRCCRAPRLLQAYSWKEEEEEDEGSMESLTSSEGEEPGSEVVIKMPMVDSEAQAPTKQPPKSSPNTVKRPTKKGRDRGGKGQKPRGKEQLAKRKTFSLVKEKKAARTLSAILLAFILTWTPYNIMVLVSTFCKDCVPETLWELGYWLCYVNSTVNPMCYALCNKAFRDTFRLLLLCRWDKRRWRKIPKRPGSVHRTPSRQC
# assay.protocol: biochemical
# Parameters: species or system male CD-COOBBS rats
# protocol.conditions: read-out: Antimuscarinic effect. Dissociation constants (KD) for ^3 H-pirenzepine binding
Where a name gives a salt, the structure may show the parent alone.
quantity.kind: Kd
Please report the result as a number followed by the unit.

Would you mind telling me what Kd value was observed for NC1=NCC(OC(=O)C2(C3CCCCC3)CCCCC2)CN1 (stereo not shown) [Compound 15, formate] ?
2.7 nM

---

# target: isolated guinea pig ileum (bethanechol induced contractions) (Cavia porcellus)
# Construct: a 2 cm piece of terminal ileum was rapidly excised; from tissue; host or cells: guinea pig terminal ileum (Dunkin Hartley)
# Sequence (H0W1Z3 1-590): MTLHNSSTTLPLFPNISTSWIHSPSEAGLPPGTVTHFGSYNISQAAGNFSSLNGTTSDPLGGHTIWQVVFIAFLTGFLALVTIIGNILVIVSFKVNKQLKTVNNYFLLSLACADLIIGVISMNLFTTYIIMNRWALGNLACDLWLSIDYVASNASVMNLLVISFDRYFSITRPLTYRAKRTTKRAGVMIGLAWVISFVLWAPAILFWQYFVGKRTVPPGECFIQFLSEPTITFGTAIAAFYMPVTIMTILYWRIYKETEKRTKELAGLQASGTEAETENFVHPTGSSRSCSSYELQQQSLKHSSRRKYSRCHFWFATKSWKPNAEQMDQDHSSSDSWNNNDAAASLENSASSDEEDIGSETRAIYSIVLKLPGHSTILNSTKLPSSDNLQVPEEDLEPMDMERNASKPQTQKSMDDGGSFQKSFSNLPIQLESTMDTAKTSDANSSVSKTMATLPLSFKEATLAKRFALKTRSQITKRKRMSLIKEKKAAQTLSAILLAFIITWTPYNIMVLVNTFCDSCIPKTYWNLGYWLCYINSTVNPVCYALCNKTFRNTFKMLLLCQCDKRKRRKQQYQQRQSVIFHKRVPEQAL
# assay.protocol: antispasmodic activity on isolated guinea pig ileum with bethanechol as spasmogen
# Parameters: species or system guinea pig (Dunkin Hartley)
# protocol.conditions: cumulative bethanechol 0.3-30 μM, antagonist 60 min before, Tyrode solution, 37° C.; KB from dose-ratio; read-out: Antispasmodic activity. Dissociation constants (KB) for bethanechol induced contractions in the guinea pig ileum
Counter-ions that a name gives are not always drawn.
Would you mind labelling by Kb? At or over 2 nM is met, under is not met.

CC1=NCCN1CCCC(O)(c1ccccc1)C1CCCCC1 (stereo not drawn) [Compound 21, hydrochloride] = met
NC1=NCC(OC(=O)C2(C3CCCCC3)CCCCC2)CN1 (stereo not drawn) [Compound 15, formate] = not met
OC(CCCN1C=NCCC1)(c1ccccc1)C1CCCCC1 (stereo not drawn) [Compound 22, hydrochloride] = not met
OC(CCN1C=NCCC1)(c1ccccc1)C1CCCCC1 (stereo not drawn) [Compound 1, hydrochloride] = not met
CC1=NCCN1CCC(O)(c1ccccc1)C1CCCCC1 (stereo not drawn) [Compound 2, hydrochloride] = not met

We next turn to a different compound, shown below.
Evaluate OC(CCN1C=NCC1)(c1ccccc1)C1CCCCC1 (stereo not drawn) [Compound 23, hydrochloride] : Kb at minimum 2 nM?
met
